Target: WT pol β (Homo sapiens)
Construct: made in house
Assay: Single turnover polymerase activity (rapid-quench), WT pol β
Assay type: biochemical
Conditions: apparent dNTP dissociation constant; Control sequence, templating base C
Description: A solution containing 50 nM DNA and 200 nM polymerase was rapidly mixed with varying concentrations of dNTP at 37 °C in 50 mM Tris pH 8.0, 20 mM NaCl, 10 mM MgCl2, 2 mM DTT and 10% glycerol using a KinTek rapid-quench flow apparatus. […] Fidelity was calculated using the catalytic specificity (kpol/KD) for correct (dGTP) and incorrect (dCTP): (kpol/KD)correct/(kpol/KD) incorrect ([37]).
measured-property: Kd (µM)

## Input Form field: Kd recorded for Nc1nc2c(ncn2[C@H]2C[C@H](O)[C@@H](COP(=O)(O)OP(=O)(O)CP(=O)(O)O)O2)c(=O)[nH]1 with WT pol β (Homo sapiens) (enter value)
## Output 0.5

(a) Nc1nc2c(ncn2C2CC(O)C(COP(=O)(O)OP(=O)(O)C(Cl)P(=O)(O)O)O2)c(=O)[nH]1 (mixture of isomers) [CHCl]
(b) Nc1nc2c(ncn2C2CC(O)C(COP(=O)(O)OP(=O)(O)C(F)P(=O)(O)O)O2)c(=O)[nH]1 (mixture of isomers)
(c) Nc1ccn([C@H]2C[C@H](O)[C@@H](COP(=O)(O)OP(=O)(O)OP(=O)(O)O)O2)c(=O)n1
(d) Nc1nc2c(ncn2[C@H]2C[C@H](O)[C@@H](COP(=O)(O)OP(=O)(O)OP(=O)(O)O)O2)c(=O)[nH]1
## Input // ranking: key=Kd, reverse=True Output spec: a listing of the labels in the requested order.
## Output c, b, d, a
(c: 1280 µM, b: 4.2 µM, d: 2 µM, a: 0.5 µM)

---

Target: K289M pol β (Homo sapiens, UniProt P06746, K289M)
Construct: made in house
Assay: Single turnover polymerase activity (rapid-quench), K289M pol β
Type: biochemical
Details: apparent dNTP dissociation constant; Control in APC sequence, templating base C; listed as O
measured-property: pKd
// pKd here means minus log10 of the molar concentration (mol/L)

## Input # pKd lookup, item Nc1nc2c(ncn2[C@H]2C[C@H](O)[C@@H](COP(=O)(O)OP(=O)(O)OP(=O)(O)O)O2)c(=O)[nH]1 [dGTP]
## Output 5.98

---

Biological target: WT pol β (Homo sapiens, UniProt P06746)
Construct: made in house
Assay: Single turnover polymerase activity (rapid-quench), WT pol β
Assay type: biochemical
Conditions: APC in Control sequence, templating base C
measured-property: kpol (s⁻¹)

Solved entries:
## Input Please report the recorded kpol for Nc1nc2c(ncn2C2CC(O)C(COP(=O)(O)OP(=O)(O)C(F)P(=O)(O)O)O2)c(=O)[nH]1 (mixture of isomers) .
## Output 25.1

## Input // same read-out, input: Nc1nc2c(ncn2[C@H]2C[C@H](O)[C@@H](COP(=O)(O)OP(=O)(O)OP(=O)(O)O)O2)c(=O)[nH]1
## Output 28.5

(P) Nc1nc2c(ncn2C2CC(O)C(COP(=O)(O)OP(=O)(O)C(Cl)P(=O)(O)O)O2)c(=O)[nH]1 (mixture of isomers) [CHCl]
(Q) Nc1nc2c(ncn2[C@H]2C[C@H](O)[C@@H](COP(=O)(O)OP(=O)(O)CP(=O)(O)O)O2)c(=O)[nH]1
(R) Nc1ccn([C@H]2C[C@H](O)[C@@H](COP(=O)(O)OP(=O)(O)OP(=O)(O)O)O2)c(=O)n1
## Input List items by kpol in falling order. Provide the labels, sequenced as the question asks.
## Output P, Q, R

---

Biological target: K289M pol β (Homo sapiens, UniProt P06746, K289M)
Construct: made in house
Assay: Single turnover polymerase activity (rapid-quench), K289M pol β
Assay type: biochemical
Settings: apparent dNTP dissociation constant; APC in Control sequence, templating base C
measured-property: Kd (µM)

(P) Nc1nc2c(ncn2[C@H]2C[C@H](O)[C@@H](COP(=O)(O)OP(=O)(O)CP(=O)(O)O)O2)c(=O)[nH]1
(Q) Nc1ccn([C@H]2C[C@H](O)[C@@H](COP(=O)(O)OP(=O)(O)OP(=O)(O)O)O2)c(=O)n1
(R) Nc1nc2c(ncn2[C@H]2C[C@H](O)[C@@H](COP(=O)(O)OP(=O)(O)OP(=O)(O)O)O2)c(=O)[nH]1
(S) Nc1nc2c(ncn2C2CC(O)C(COP(=O)(O)OP(=O)(O)C(Cl)P(=O)(O)O)O2)c(=O)[nH]1 (mixture of isomers) [CHCl]
(T) Nc1nc2c(ncn2C2CC(O)C(COP(=O)(O)OP(=O)(O)C(F)P(=O)(O)O)O2)c(=O)[nH]1 (mixture of isomers)
## Input Order by Kd, ascending. Answer format: list of labels, ordered as asked.
## Output T, R, P, S, Q
(T: 1.04 µM, R: 1.5 µM, P: 4.75 µM, S: 10 µM, Q: 766 µM)

---

Target: WT pol β (Homo sapiens)
Construct: made in house
Assay: Single turnover polymerase activity (rapid-quench), WT pol β
Assay type: biochemical
Settings: apparent dNTP dissociation constant; APC in Control sequence, templating base C
Method: A solution containing 50 nM DNA and 200 nM polymerase was rapidly mixed with varying concentrations of dNTP at 37 °C in 50 mM Tris pH 8.0, 20 mM NaCl, 10 mM MgCl2, 2 mM DTT and 10% glycerol using a KinTek rapid-quench flow apparatus. […] Fidelity was calculated using the catalytic specificity (kpol/KD) for correct (dGTP) and incorrect (dCTP): (kpol/KD)correct/(kpol/KD) incorrect ([37]).
pKd: −log10 of the molar value.
measured-property: pKd

(a) Nc1nc2c(ncn2C2CC(O)C(COP(=O)(O)OP(=O)(O)C(Cl)P(=O)(O)O)O2)c(=O)[nH]1 (mixture of isomers) [CHCl]
(b) Nc1ccn([C@H]2C[C@H](O)[C@@H](COP(=O)(O)OP(=O)(O)OP(=O)(O)O)O2)c(=O)n1 [dCTP]
## Input I'm curious whether a or b has the smaller pKd number. Which is it? Refer to your chosen item by its label in the answer.
## Output b
(b: 3.41, a: 5.12)

(I) Nc1nc2c(ncn2[C@H]2C[C@H](O)[C@@H](COP(=O)(O)OP(=O)(O)CP(=O)(O)O)O2)c(=O)[nH]1 [CH2]
(II) Nc1nc2c(ncn2[C@H]2C[C@H](O)[C@@H](COP(=O)(O)OP(=O)(O)OP(=O)(O)O)O2)c(=O)[nH]1 [dGTP]
## Input Endpoint returns whichever of I and II has the numerically higher pKd. When you have decided, please share the label of that item.
## Output II

---

Target: K289M pol β (Homo sapiens, UniProt P06746, K289M)
Construct: made in house
Assay: Single turnover polymerase activity (rapid-quench), K289M pol β
Format: biochemical
Conditions: APC sequence, templating base C
Procedure: A solution containing 50 nM DNA and 200 nM polymerase was rapidly mixed with varying concentrations of dNTP at 37 °C in 50 mM Tris pH 8.0, 20 mM NaCl, 10 mM MgCl2, 2 mM DTT and 10% glycerol using a KinTek rapid-quench flow apparatus. […] Fidelity was calculated using the catalytic specificity (kpol/KD) for correct (dGTP) and incorrect (dCTP): (kpol/KD)correct/(kpol/KD) incorrect ([37]).
measured-property: kpol (s⁻¹)

Recorded results for 3 molecules are shown here.
## Input Query: kpol; subject: Nc1nc2c(ncn2C2CC(O)C(COP(=O)(O)OP(=O)(O)C(F)P(=O)(O)O)O2)c(=O)[nH]1 (mixture of isomers) [CHF]
## Output 0.90

## Input Thanks! And Nc1nc2c(ncn2[C@H]2C[C@H](O)[C@@H](COP(=O)(O)OP(=O)(O)CP(=O)(O)O)O2)c(=O)[nH]1 [CH2] ?
## Output 0.70

## Input Okay, and Nc1nc2c(ncn2[C@H]2C[C@H](O)[C@@H](COP(=O)(O)OP(=O)(O)OP(=O)(O)O)O2)c(=O)[nH]1 [dGTP] ?
## Output 0.90

(1) Nc1nc2c(ncn2C2CC(O)C(COP(=O)(O)OP(=O)(O)C(Cl)P(=O)(O)O)O2)c(=O)[nH]1 (mixture of isomers) [CHCl]
(2) Nc1ccn([C@H]2C[C@H](O)[C@@H](COP(=O)(O)OP(=O)(O)OP(=O)(O)O)O2)c(=O)n1 [dCTP]
## Input Which value of kpol is smaller, the one for 1 or the one for 2 ? Answer by stating the label of the chosen item.
## Output 2

---

Target: WT pol β (Homo sapiens, UniProt P06746)
Construct: made in house
Test: Single turnover polymerase activity (rapid-quench), WT pol β
Assay type: biochemical
Conditions: Control sequence, templating base C
measured-property: kpol (s⁻¹)

## Input Notebook: pull reported kpol for WT pol β (Homo sapiens, UniProt P06746), entry Nc1nc2c(ncn2[C@H]2C[C@H](O)[C@@H](COP(=O)(O)OP(=O)(O)OP(=O)(O)O)O2)c(=O)[nH]1
## Output 12.6

(1) Nc1nc2c(ncn2C2CC(O)C(COP(=O)(O)OP(=O)(O)C(F)P(=O)(O)O)O2)c(=O)[nH]1 (mixture of isomers)
(2) Nc1nc2c(ncn2[C@H]2C[C@H](O)[C@@H](COP(=O)(O)OP(=O)(O)CP(=O)(O)O)O2)c(=O)[nH]1
(3) Nc1ccn([C@H]2C[C@H](O)[C@@H](COP(=O)(O)OP(=O)(O)OP(=O)(O)O)O2)c(=O)n1
(4) Nc1nc2c(ncn2C2CC(O)C(COP(=O)(O)OP(=O)(O)C(Cl)P(=O)(O)O)O2)c(=O)[nH]1 (mixture of isomers) [CHCl]
## Input hey, can you rank those compounds up there by kpol? biggest number first please Arrange the labels as the request states and list them.
## Output 1, 4, 2, 3
